- Test system: crabgrass (Digitaria sanguinalis)
- experimentNotes: Test C preemergence
- Type: in vivo
- testParameters: Rate 62 g/ha; scale 0 to 100, 0 no effect, 100 complete control
readoutLabel: Plant response rating, Crabgrass
Number only, no unit.

Example entries and their recorded answers appear below.
INSERT INTO results (compound, testedsystem, quantitativereadout) VALUES
  ('CC1(c2ccn(C3OCN(c4cccc(C(F)(F)F)c4)C3=O)n2)CC1 (centres unmarked)', 'crabgrass (Digitaria sanguinalis)', 0),
  ('O=C1C(n2ccc(C3CCCCC3)n2)SCN1c1cccc(OC(F)(F)F)c1 (centres unmarked)', 'crabgrass (Digitaria sanguinalis)', 100),
  ('O=C1C(n2ccc(C3CC3)n2)CCN1c1cccc(C(F)(F)F)c1 (centres unmarked)', 'crabgrass (Digitaria sanguinalis)', 70),
  ('CC(C)(C)c1ccn(C2CCN(c3ccc(F)c(Br)c3)C2=O)n1 (centres unmarked)', 'crabgrass (Digitaria sanguinalis)', 90);

Lab note: next compound to report on.
What measured Plant response rating, Crabgrass goes with CC(C)c1ccn(C2SCN(c3cccc(OC(F)(F)F)c3)C2=O)n1 (centres unmarked) ?
100

// provenance: patent US7138361B2
